Reference source for all entries: ChEMBL document CHEMBL4038323

# tgt: Metabotropic glutamate receptor 2 (Homo sapiens)
# measurement.description: Displacement of [3H]JNJ-46281222 from human metabotropic glutamate receptor 2 expressed in CHOK1 cell membranes assessed as residence time measured every 30 sec for 120 mins by scintillation proximity assay
# Sequence (Q14416 19-872 limits assumed): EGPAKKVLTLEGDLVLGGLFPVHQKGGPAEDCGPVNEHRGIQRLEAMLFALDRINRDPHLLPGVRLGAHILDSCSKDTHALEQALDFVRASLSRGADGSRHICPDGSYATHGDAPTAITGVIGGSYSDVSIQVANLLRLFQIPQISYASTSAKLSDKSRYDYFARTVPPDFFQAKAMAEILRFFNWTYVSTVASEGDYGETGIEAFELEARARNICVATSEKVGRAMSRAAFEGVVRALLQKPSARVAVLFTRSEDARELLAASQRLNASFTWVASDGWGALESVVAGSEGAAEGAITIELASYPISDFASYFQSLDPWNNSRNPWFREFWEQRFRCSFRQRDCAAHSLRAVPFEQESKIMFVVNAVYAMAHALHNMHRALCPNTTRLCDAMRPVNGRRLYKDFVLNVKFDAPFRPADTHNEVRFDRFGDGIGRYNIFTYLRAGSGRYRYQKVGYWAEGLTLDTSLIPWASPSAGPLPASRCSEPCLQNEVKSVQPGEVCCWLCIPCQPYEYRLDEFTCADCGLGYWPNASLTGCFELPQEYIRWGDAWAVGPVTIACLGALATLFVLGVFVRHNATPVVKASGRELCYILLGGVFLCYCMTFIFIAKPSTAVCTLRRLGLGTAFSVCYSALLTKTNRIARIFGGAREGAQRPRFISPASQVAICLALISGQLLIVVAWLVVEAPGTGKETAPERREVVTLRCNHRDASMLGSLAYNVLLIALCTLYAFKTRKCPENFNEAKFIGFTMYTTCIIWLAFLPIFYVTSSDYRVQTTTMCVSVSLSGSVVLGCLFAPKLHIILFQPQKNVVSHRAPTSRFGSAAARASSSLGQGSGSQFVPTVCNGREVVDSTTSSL
reported.property: TIME (h)

COc1ccc(CNc2ccc(-c3ccn4c(CC5CC5)nnc4c3Cl)cc2)cn1	0.172
CC(C)C(=O)c1ccc(OCc2ccc(CNC(=O)c3cn(C)cn3)cc2)c(C(F)(F)F)c1O	0.14
CCOCc1nnc2c(C(F)(F)F)c(-c3ccc(Oc4ccc(C)nc4C)c(F)c3)ccn12	0.223

P = Cc1cc(Oc2ccc(-c3ccn4c(CC5CC5)nnc4c3C(F)(F)F)cc2F)cc(C)n1
Q = FC(F)(F)c1c(-c2ccc(NC3CCOCC3)c(Cl)c2)ccn2c(CC3CC3)nnc12
INPUT: Input pair: P , Q . Output: entry with lower TIME. Answer = label.
OUTPUT: P

====

pKd: −log10 of the molar value.
Metabotropic glutamate receptor 2 (Homo sapiens, UniProt Q14416) measurements of pKd, listed per entry.
reported.property: pKd

O[C@H]1CC[C@@H](Oc2ccc(-c3ccn4c(CC(F)(F)F)nnc4c3Cl)cc2Cl)CC1	8.09
Cc1ccc(Oc2ccc(-c3ccn4c(CC5CC5)nnc4c3C(F)(F)F)cc2Cl)c(C)n1	8.14
Cc1cc(Oc2ccc(-c3ccn4c(CC5CC5)nnc4c3C(F)(F)F)cc2F)cc(C)n1	7.94
Cc1ccc(Oc2ccc(-c3ccn4c(CC5CC5)nnc4c3C)cc2F)c(C)n1	8.00
Fc1cc(-c2ccn3c(CC4CC4)nnc3c2C(F)(F)F)ccc1Oc1ccnc(C2CC2)c1	8.07

====

# tgt: Metabotropic glutamate receptor 2 (Homo sapiens, UniProt Q14416)
# measurement.description: Displacement of [3H]-JNJ46281222 from human metabotropic glutamate receptor 2 expressed in CHOK1 cell membranes after 60 mins by microbeta counting analysis
# Sequence (Q14416 whole entry): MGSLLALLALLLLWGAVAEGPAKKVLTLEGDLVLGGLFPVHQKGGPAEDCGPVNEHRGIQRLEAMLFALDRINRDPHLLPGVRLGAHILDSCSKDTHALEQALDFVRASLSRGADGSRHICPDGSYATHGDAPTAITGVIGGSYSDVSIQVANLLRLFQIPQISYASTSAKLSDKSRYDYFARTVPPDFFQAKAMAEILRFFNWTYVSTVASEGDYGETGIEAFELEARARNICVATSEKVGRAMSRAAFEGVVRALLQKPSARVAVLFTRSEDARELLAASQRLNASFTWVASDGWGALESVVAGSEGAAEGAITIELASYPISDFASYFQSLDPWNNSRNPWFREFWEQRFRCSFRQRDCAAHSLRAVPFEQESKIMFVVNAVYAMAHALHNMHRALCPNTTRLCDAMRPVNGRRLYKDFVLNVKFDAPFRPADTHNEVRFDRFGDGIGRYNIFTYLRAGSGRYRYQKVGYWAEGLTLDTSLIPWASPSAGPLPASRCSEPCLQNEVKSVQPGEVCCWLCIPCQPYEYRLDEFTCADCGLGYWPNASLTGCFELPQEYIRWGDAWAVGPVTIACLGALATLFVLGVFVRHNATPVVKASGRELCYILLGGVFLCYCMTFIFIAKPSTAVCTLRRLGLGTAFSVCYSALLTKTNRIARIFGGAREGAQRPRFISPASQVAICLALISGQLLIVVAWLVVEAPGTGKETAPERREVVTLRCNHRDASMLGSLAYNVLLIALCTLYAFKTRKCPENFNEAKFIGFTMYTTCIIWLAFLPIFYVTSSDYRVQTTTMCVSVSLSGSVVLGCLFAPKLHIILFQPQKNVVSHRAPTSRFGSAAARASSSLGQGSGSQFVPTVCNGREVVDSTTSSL
reported.property: Ki (µM)

CC(C)Nc1ccc(-c2ccn3c(CC4CC4)nnc3c2Cl)cc1F	0.0617

I = Cc1ccc(Oc2ccc(-c3ccn4c(CC5CC5)nnc4c3C(F)(F)F)cc2Cl)c(C)n1
II = O[C@H]1CC[C@H](Oc2ccc(-c3ccn4c(CC(F)(F)F)nnc4c3Cl)cc2Cl)CC1
INPUT: Which is greater in Ki, the first item I or the second item II ? Answer = label.
OUTPUT: II
(II: 0.0115 µM, I: 0.00151 µM)

====

# tgt: UniProt:Q14416
# measurement.description: Positive allosteric modulation of human metabotropic glutamate receptor 2 expressed in CHOK1 cell membranes assessed as increase in glutamate-induced [35S]GTPgammaS binding preincubated for 30 mins followed by [35S]GTPgammaS addition measured after 30 mins by Topcount scintillation counting method
# Assay type: functional
reported.property: EC50 (nM)

Illustrative cases are given below, each with its answer.
COc1ccc(COc2ccc(-c3ccn4c(CC5CC5)nnc4c3C(F)(F)F)cc2F)cn1	40.7
Cc1cc(Oc2ccc(-c3ccn4c(CC5CC5)nnc4c3C(F)(F)F)cc2F)ccn1	56.2
O[C@H]1CC[C@@H](Oc2ccc(-c3ccn4c(CC(F)(F)F)nnc4c3Cl)cc2Cl)CC1	97.7
Fc1cc(-c2ccn3c(CC4CC4)nnc3c2C(F)(F)F)ccc1Oc1ccnc(C2CC2)c1	18.6

A = COc1ccc(CNc2ccc(-c3ccn4c(CC5CC5)nnc4c3Cl)cc2)cn1
B = O[C@H]1CC[C@H](Nc2ccc(-c3ccn4c(CC5CC5)nnc4c3Cl)cc2Cl)CC1
C = COc1ccc(CNc2ccc(-c3ccn4c(CC5CC5)nnc4c3C(F)(F)F)cc2F)cn1
D = CCc1cc(Oc2ccc(-c3ccn4c(CC5CC5)nnc4c3Cl)cc2F)ccn1
E = Fc1cc(-c2ccn3c(CC4CC4)nnc3c2Cl)ccc1NC1CC1
INPUT: Order the records by EC50, with each subsequent value no larger than the one before. // ordering of labels required in reply
OUTPUT: A, D, E, B, C

I = Cc1ccc(Oc2ccc(-c3ccn4c(CC5CC5)nnc4c3C(C)C)cc2F)c(C)n1
II = FC(F)(F)c1c(-c2ccc(NC3CC3)c(Cl)c2)ccn2c(CC3CC3)nnc12
INPUT: Input pair: I , II . Output: entry with lower EC50. Answer = label.
OUTPUT: II
(II: 7.76 nM, I: 28.2 nM)

====

# tgt: Metabotropic glutamate receptor 2 (Homo sapiens)
# measurement.description: Displacement of [3H]JNJ-46281222 from human metabotropic glutamate receptor 2 expressed in CHOK1 cell membranes assessed as association rate constant measured every 30 sec for 120 mins by scintillation proximity assay
reported.property: K (×10⁶ /M/min)

Illustrative cases are given below, each with its answer.
Cc1c(OCc2cccc(-c3ccc(C(=O)O)cc3)c2)cc2c(c1C)C(=O)C(C1CCCC1)C2 (stereo not given)	4.6
Cc1ccc(Oc2ccc(-c3ccn4c(CC5CC5)nnc4c3C(F)(F)F)cc2Cl)c(C)n1	6.1
Clc1cc(-c2ccn3c(CC4CC4)nnc3c2Cl)ccc1NC1CCOCC1	7

P = CC(C)C(=O)c1ccc(OCc2ccc(CNC(=O)c3cn(C)cn3)cc2)c(C(F)(F)F)c1O
Q = CCc1cc(Oc2ccc(-c3ccn4c(CC5CC5)nnc4c3Cl)cc2F)ccn1
INPUT: Which is greater in K, the first item P or the second item Q ? Answer = label.
OUTPUT: Q

1 = O[C@H]1CC[C@H](Oc2ccc(-c3ccn4c(CC(F)(F)F)nnc4c3Cl)cc2Cl)CC1
2 = Fc1cc(-c2ccn3c(CC4CC4)nnc3c2Cl)ccc1NC1CC1
INPUT: Input pair: 1 , 2 . Output: entry with lower K. Answer = label.
OUTPUT: 2
(2: 4.8 ×10⁶ /M/min, 1: 8.3 ×10⁶ /M/min)

a = Cc1ccc(Oc2ccc(-c3ccn4c(CC5CC5)nnc4c3C(C)C)cc2F)c(C)n1
b = Clc1cc(-c2ccn3c(CC4CC4)nnc3c2Cl)ccc1OC1CCOCC1
INPUT: Input pair: a , b . Output: entry with lower K. Answer = label.
OUTPUT: b

====

# tgt: Metabotropic glutamate receptor 2 (Homo sapiens, UniProt Q14416)
# measurement.description: Displacement of [3H]JNJ-46281222 from human metabotropic glutamate receptor 2 expressed in CHOK1 cell membranes assessed as residence time measured every 30 sec for 120 mins by scintillation proximity assay
reported.property: TIME (h)

Illustrative cases are given below, each with its answer.
Cc1c(OCc2cccc(-c3ccc(C(=O)O)cc3)c2)cc2c(c1C)C(=O)C(C1CCCC1)C2 (stereo unspecified)	0.193
Cc1ccc(Oc2ccc(-c3ccn4c(CC5CC5)nnc4c3Cl)cc2Cl)c(C)n1	0.272
Fc1cc(-c2ccn3c(CC4CC4)nnc3c2Cl)ccc1Oc1ccnc(C2CC2)c1	0.228

P = Fc1cc(-c2ccn3c(CC4CC4)nnc3c2Cl)ccc1NC1CC1
Q = CC(C)Nc1ccc(-c2ccn3c(CC4CC4)nnc3c2C(F)(F)F)cc1Cl
R = Cc1ccc(Oc2ccc(-c3ccn4c(CC5CC5)nnc4c3C(F)(F)F)cc2F)c(C)n1
INPUT: Sort (3 molecules) by TIME: min first. // ordering of labels required in reply
OUTPUT: Q, P, R
(Q: 0.137 h, P: 0.273 h, R: 0.502 h)

====

# tgt: UniProtKB Q14416
# measurement.description: Displacement of [3H]-JNJ46281222 from human metabotropic glutamate receptor 2 expressed in CHOK1 cell membranes after 60 mins by microbeta counting analysis
pKi: −log10 of the molar value.
reported.property: pKi

Illustrative cases are given below, each with its answer.
O[C@H]1CC[C@H](Nc2ccc(-c3ccn4c(CC5CC5)nnc4c3Cl)cc2Cl)CC1	8.52
Clc1cc(-c2ccn3c(CC4CC4)nnc3c2Cl)ccc1NC1CCOCC1	7.41
O[C@]1(C2CC2)CC[C@H](Nc2ccc(-c3ccn4c(CC5CC5)nnc4c3C(F)(F)F)cc2Cl)CC1	9.05
Cc1ccc(Oc2ccc(-c3ccn4c(CC5CC5)nnc4c3C(F)(F)F)cc2F)c(C)n1	8.59

a = FC(F)(F)c1c(-c2ccc(CNC3CCOCC3)c(Cl)c2)ccn2c(CC3CC3)nnc12
b = CCOCc1nnc2c(Cl)c(-c3ccc(Oc4ccc(C)nc4C)c(F)c3)ccn12
INPUT: Input pair: a , b . Output: entry with lower pKi. Answer = label.
OUTPUT: a
(a: 7.21, b: 8.19)

1 = COc1ccc(CNc2ccc(-c3ccn4c(CC5CC5)nnc4c3Cl)cc2)cn1
2 = Fc1cc(-c2ccn3c(CC4CC4)nnc3c2C(F)(F)F)ccc1NC1CC1
3 = Fc1cc(-c2ccn3c(CC4CC4)nnc3c2Cl)ccc1Oc1ccnc(C2CC2)c1
INPUT: Sort (3 molecules) by pKi: min first. // ordering of labels required in reply
OUTPUT: 3, 1, 2
(3: 7.27, 1: 8.13, 2: 8.44)

I = Cc1ccc(Oc2ccc(-c3ccn4c(CC5CC5)nnc4c3C)cc2Cl)c(C)n1
II = COc1ccc(CNc2ccc(-c3ccn4c(CC5CC5)nnc4c3C(F)(F)F)cc2F)cn1
III = Cc1cc(Oc2ccc(-c3ccn4c(CC5CC5)nnc4c3C(F)(F)F)cc2F)ccn1
INPUT: Order the records by pKi, with each subsequent value no larger than the one before. // ordering of labels required in reply
OUTPUT: II, III, I

I = COc1ccc(COc2ccc(-c3ccn4c(CC5CC5)nnc4c3C(F)(F)F)cc2F)cn1
II = Cc1ccc(Oc2ccc(-c3ccn4c(CC5CC5)nnc4c3C)cc2F)c(C)n1
INPUT: Which is greater in pKi, the first item I or the second item II ? Answer = label.
OUTPUT: I
(I: 7.93, II: 7.66)
